- Protocol text: inhibition of Brca1/Bard1 split-luciferase complementation, confirmation, counter-screen for Mdm2/MdmX interaction inhibitor project, luminescence, single concentration (AID 504668)
- Condition info: Brca1/Bard1 bimolecular luciferase complementation counterscreen, at 8 µM, active compounds read high
Record form. Attribute: inhibition. Fill in for each entry.
Entry rule: numbers only, all in %.

stdin: For the molecule shown here, Cc1sc2ncn(CC(=O)NCCCC(=O)Nc3ccc(C(C)C)cc3)c(=O)c2c1C , give the reported inhibition.
stdout: 29.2

stdin: Tell me the measured inhibition of CC(C)(C)c1ccc(C2CC2C(=O)N/N=C\c2ccc[nH]2)cc1 (stereo not drawn) , please.
stdout: 30.5

stdin: What value of inhibition has been reported for the following molecule? CCCCCN=C(N)N/N=C/c1c[nH]c2ccc(OC)cc12
stdout: 30.4
